experimental target: T1, WHRN-PDZ1 domain, purified (mouse, UniProt Q80VW5 137-225)
T1 construct: first PDZ domain of whirlin (WHRN), mouse; 13C,15N- or 15N-labelled for NMR; Residues up to A222 were assigned; source: purified protein
T1 sequence: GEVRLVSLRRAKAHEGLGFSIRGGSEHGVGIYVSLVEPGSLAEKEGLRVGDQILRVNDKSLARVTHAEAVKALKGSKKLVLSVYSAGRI
assay method text: ITC; ITC200; purified PDZ protein 50 uM, peptide 1 mM; 20 mM Tris, 200 mM NaCl, 2 mM EDTA, pH 7.4
measurement context: both partners purified
pKd: −log10 of the molar value.

>  <binder>
EHTAFTDTHL (peptide, UniProt Q2QI47 5184-5193, looked up, also called USH2A C-terminal peptide; source: synthetic peptide) [USH2Ap, 10-residue C-terminal tail peptide of USH2A harboring the PDZ-binding motif]

>  <pKd>
4.55

$$$$
